Assay: pKa
Type: physicochemical
Details: Measurement determined at Analyza
Would you please tag the item condition met when its pKa is 8 or above, and condition not met when it is below?

Does the compound C[C@H]1C[C@H]2CSC(N)=N[C@@]2(c2nc(NC(=O)c3ccc(OC(F)F)cn3)ccc2F)CO1 [Comparator 3, reference compound] have recorded pKa that is 8 or more?
condition met

Does the compound NC1=N[C@@]2(c3cc(NC(=O)c4ccc(OC(F)F)cn4)ccc3F)CO[C@@H](C(F)(F)F)C[C@H]2CS1 [Comparator 6, reference compound] have recorded pKa that is 8 or more?
condition not met

Does the compound C[C@H]1C[C@H]2CSC(N)=N[C@@]2(c2nc(NC(=O)c3ccc(OC(F)F)cn3)ccc2F)CO1 [Comparator 2] have recorded pKa that is 8 or more?
condition met

Does the compound C[C@H]1C[C@H]2CSC(N)=N[C@@]2(c2nc(NC(=O)c3ccc(OC(F)F)cn3)cs2)CO1 have recorded pKa that is 8 or more?
condition not met

###

Assay: pKa
Type: physicochemical
Details: Measurement determined at Analyza; read-out: pKa
Metric name: pKa
Number, no unit, nothing else.

Would you mind telling me what pKa value was observed for C[C@H]1C[C@H]2CSC(N)=N[C@@]2(c2nc(NC(=O)c3ccc(Cl)cn3)cs2)CO1 ?
6.9

Would you mind telling me what pKa value was observed for C[C@H]1C[C@H]2CSC(N)=N[C@@]2(c2nc(NC(=O)c3cnc(OC(F)F)cn3)cs2)CO1 ?
6.8

Would you mind telling me what pKa value was observed for C[C@H]1C[C@H]2CSC(N)=N[C@@]2(c2nc(NC(=O)c3ccc(OC(F)F)cn3)cs2)CO1 ?
6.8

Would you mind telling me what pKa value was observed for Cc1cc(OC(F)F)cnc1C(=O)Nc1csc([C@]23CO[C@@H](C)C[C@H]2CSC(N)=N3)n1 ?
6.9

###

Molecular target: BACE1 (Homo sapiens (Human))
Assay: BACE1 Cell-Free Assay (fluorescence polarization)
Assay type: biochemical
Conditions: read-out: BACE1 Cell-free Assay IC50
Where a name gives a salt, the structure may show the parent alone.
Field: pIC50. Provide a value for each of the molecules that follow.
Just so you know, pIC50 here is -log10 of the concentration in molar units; reply with that number alone.

Would you mind telling me what pIC50 value was observed for CCc1cc(C(=O)Nc2csc([C@]34CO[C@@H](C)C[C@H]3CSC(N)=N4)n2)n(C)n1 [Example 39, trifluoroacetate salt] ?
6.43

Would you mind telling me what pIC50 value was observed for C[C@H]1C[C@H]2CSC(N)=N[C@@]2(c2nc(NC(=O)c3ccc(OCC(F)F)cn3)cs2)CO1 [Example 37, formate salt] ?
6.31

Would you mind telling me what pIC50 value was observed for C[C@H]1C[C@H]2CSC(N)=N[C@@]2(c2nc(NC(=O)c3cnc(C(F)(F)F)cn3)cs2)CO1 [Example 16, formate salt] ?
6.71

Would you mind telling me what pIC50 value was observed for C[C@H]1C[C@H]2CSC(N)=N[C@@]2(c2nc(NC(=O)c3cnn(C)n3)cs2)CO1 [Example 40, trifluoroacetate salt] ?
6.87

Would you mind telling me what pIC50 value was observed for C[C@H]1C[C@H]2CSC(N)=N[C@@]2(c2nc(NC(=O)c3ccc(F)cc3)cs2)CO1 [Example 14, formate salt] ?
6.06

Would you mind telling me what pIC50 value was observed for Cc1cc(F)cnc1C(=O)Nc1csc([C@]23CO[C@@H](C)C[C@H]2CSC(N)=N3)n1 [Example 13, formate salt] ?
7.05

###

Biological target: P-glycoprotein (MDR1-transfected MDCK cell line) (Homo sapiens (Human), UniProt P08183)
Sequence (P08183 whole entry): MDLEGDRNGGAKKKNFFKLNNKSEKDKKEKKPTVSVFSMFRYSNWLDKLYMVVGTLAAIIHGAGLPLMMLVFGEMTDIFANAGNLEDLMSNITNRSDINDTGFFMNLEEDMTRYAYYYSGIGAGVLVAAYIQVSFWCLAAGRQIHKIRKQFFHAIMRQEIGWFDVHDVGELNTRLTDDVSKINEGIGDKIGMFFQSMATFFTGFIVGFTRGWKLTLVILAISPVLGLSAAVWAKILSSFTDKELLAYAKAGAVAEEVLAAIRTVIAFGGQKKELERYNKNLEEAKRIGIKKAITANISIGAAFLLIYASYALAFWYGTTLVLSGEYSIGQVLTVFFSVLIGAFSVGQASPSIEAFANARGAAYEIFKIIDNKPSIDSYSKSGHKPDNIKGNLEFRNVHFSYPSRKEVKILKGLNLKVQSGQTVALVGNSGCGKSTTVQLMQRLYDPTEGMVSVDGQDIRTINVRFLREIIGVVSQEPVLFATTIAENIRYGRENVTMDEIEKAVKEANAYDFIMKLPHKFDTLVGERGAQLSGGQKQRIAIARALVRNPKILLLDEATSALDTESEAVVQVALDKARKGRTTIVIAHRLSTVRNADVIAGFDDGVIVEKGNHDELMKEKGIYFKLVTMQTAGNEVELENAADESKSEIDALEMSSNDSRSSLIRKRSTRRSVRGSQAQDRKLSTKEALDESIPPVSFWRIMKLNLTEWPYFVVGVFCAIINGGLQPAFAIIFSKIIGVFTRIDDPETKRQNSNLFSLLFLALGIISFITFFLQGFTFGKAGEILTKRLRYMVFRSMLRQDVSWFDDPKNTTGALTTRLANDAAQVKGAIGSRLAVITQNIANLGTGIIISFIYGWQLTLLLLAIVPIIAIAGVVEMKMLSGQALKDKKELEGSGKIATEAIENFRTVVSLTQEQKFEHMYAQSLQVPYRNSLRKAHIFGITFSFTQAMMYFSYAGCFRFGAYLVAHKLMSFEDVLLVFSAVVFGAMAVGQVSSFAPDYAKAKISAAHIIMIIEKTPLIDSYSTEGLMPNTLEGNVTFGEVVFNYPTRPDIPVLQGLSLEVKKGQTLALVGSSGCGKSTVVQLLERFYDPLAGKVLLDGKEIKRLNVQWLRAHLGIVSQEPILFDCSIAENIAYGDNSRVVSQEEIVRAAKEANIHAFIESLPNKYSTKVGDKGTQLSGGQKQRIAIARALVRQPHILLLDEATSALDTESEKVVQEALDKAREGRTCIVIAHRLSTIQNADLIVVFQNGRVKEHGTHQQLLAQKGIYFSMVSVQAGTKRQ
Test: Pgp Liability MDR1 Er
Format: in vitro ADME
Conditions: MDR1-transfected MDCK cell line; ratio of permeability, Papp BA/AB
Field: Pgp liability MDR1 Er. Provide a value for each of the compounds that follow.

Would you mind telling me what Pgp liability MDR1 Er value was observed for NC1=N[C@@]2(c3cc(NC(=O)c4ccc(OC(F)F)cn4)ccc3F)CO[C@@H](C(F)(F)F)C[C@H]2CS1 [Comparator 6, reference compound] ?
3.2

Would you mind telling me what Pgp liability MDR1 Er value was observed for C[C@H]1C[C@H]2CSC(N)=N[C@@]2(c2nc(NC(=O)c3ccc(OC(F)F)cn3)ccc2F)CO1 [Comparator 2] ?
14.2

Would you mind telling me what Pgp liability MDR1 Er value was observed for C[C@H]1C[C@H]2CSC(N)=N[C@@]2(c2cc(NC(=O)c3ccc(Cl)cn3)ccc2F)CO1 [Comparator 7, reference compound] ?
3.03

Would you mind telling me what Pgp liability MDR1 Er value was observed for C[C@H]1C[C@H]2CSC(N)=N[C@@]2(c2nc(NC(=O)c3ccc(OC(F)F)cn3)cs2)CO1 ?
7.1

Would you mind telling me what Pgp liability MDR1 Er value was observed for C[C@H]1C[C@H]2CSC(N)=N[C@@]2(c2nc(NC(=O)c3ccc(OC(F)F)cn3)ccc2F)CO1 [Comparator 3, reference compound] ?
5.1

Would you mind telling me what Pgp liability MDR1 Er value was observed for NC1=N[C@@]2(c3cc(NC(=O)c4ccc(OC(F)F)cn4)ccc3F)COCC[C@H]2CS1 [Comparator 4, reference compound] ?
6.8

###

Test: Aniline structural alert
Metric name: Aniline Structural Alert

Compound | Metric name | Obs value
C[C@H]1C[C@H]2CSC(N)=N[C@@]2(c2nc(NC(=O)c3ccc(Cl)cn3)cs2)CO1 | Aniline Structural Alert | No
C[C@H]1C[C@H]2CSC(N)=N[C@@]2(c2nc(NC(=O)c3ccc(OC(F)F)cn3)ccc2F)CO1 [Comparator 2] | Aniline Structural Alert | No
C[C@H]1C[C@H]2CSC(N)=N[C@@]2(c2nc(NC(=O)c3cnc(OC(F)F)cn3)cs2)CO1 | Aniline Structural Alert | No
C[C@H]1C[C@H]2CSC(N)=N[C@@]2(c2cc(NC(=O)c3ccc(C#N)cn3)cs2)CO1 | Aniline Structural Alert | No
NC1=N[C@@]2(c3cc(NC(=O)c4ccc(OC(F)F)cn4)ccc3F)COCC[C@H]2CS1 [Comparator 4, reference compound] | Aniline Structural Alert | Yes

Would you mind telling me what Aniline Structural Alert value was observed for C[C@H]1C[C@H]2CSC(N)=N[C@@]2(c2nc(NC(=O)c3ccc(OC(F)F)cn3)ccc2F)CO1 [Comparator 3, reference compound] ?
Yes

Would you mind telling me what Aniline Structural Alert value was observed for C[C@H]1C[C@H]2CSC(N)=N[C@@]2(c2nc(NC(=O)c3ccc(OC(F)F)cn3)cs2)CO1 ?
No

Would you mind telling me what Aniline Structural Alert value was observed for C[C@H]1C[C@H]2CSC(N)=N[C@@]2(c2cc(NC(=O)c3ccc(Cl)cn3)ccc2F)CO1 [Comparator 7, reference compound] ?
Yes

Would you mind telling me what Aniline Structural Alert value was observed for NC1=N[C@@]2(c3cc(NC(=O)c4ccc(OC(F)F)cn4)ccc3F)CO[C@@H](C(F)(F)F)C[C@H]2CS1 [Comparator 6, reference compound] ?
Yes

Would you mind telling me what Aniline Structural Alert value was observed for Cc1cc(OC(F)F)cnc1C(=O)Nc1csc([C@]23CO[C@@H](C)C[C@H]2CSC(N)=N3)n1 ?
No

###

Target: BACE1 (Homo sapiens (Human), UniProt P56817)
Sequence (P56817 46-457): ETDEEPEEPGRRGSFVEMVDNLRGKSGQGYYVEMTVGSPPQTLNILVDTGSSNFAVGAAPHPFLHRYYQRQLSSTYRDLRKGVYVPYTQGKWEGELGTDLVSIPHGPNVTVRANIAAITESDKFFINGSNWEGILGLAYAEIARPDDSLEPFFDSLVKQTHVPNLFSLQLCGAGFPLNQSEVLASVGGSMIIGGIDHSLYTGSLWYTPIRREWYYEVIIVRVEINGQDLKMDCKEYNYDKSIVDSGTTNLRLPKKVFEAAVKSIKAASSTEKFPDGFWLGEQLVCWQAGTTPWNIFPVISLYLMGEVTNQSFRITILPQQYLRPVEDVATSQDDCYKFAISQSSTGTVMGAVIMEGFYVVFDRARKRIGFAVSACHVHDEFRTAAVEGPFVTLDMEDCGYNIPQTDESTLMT
Assay: BACE1 Cell-Free Assay (fluorescence polarization)
Assay type: biochemical
Conditions: geometric mean of 2-4 determinations unless otherwise indicated (b: ≧5; c: single determination); read-out: BACE1 Cell-free Assay IC50
Where a name gives a salt, the structure may show the parent alone.
Metric name: IC50 (nM)
Give just the number in nM; leave the unit off.

Would you mind telling me what IC50 value was observed for C[C@H]1C[C@H]2CSC(N)=N[C@@]2(c2nc(NC(=O)c3cnc(OCC(C)(F)F)cn3)cs2)CO1 ?
161

Would you mind telling me what IC50 value was observed for C[C@H]1C[C@H]2CSC(N)=N[C@@]2(c2nc(NC(=O)c3coc(C4CC4)n3)cs2)CO1 ?
1310

Would you mind telling me what IC50 value was observed for CCc1cc(C(=O)Nc2csc([C@]34CO[C@@H](C)C[C@H]3CSC(N)=N4)n2)on1 [Example 71, trifluoroacetate salt] ?
9260

Would you mind telling me what IC50 value was observed for COCc1nc(C(=O)Nc2csc([C@]34CO[C@@H](C)C[C@H]3CSC(N)=N4)n2)co1 ?
175

Would you mind telling me what IC50 value was observed for CC(C)Cc1cc(C(=O)Nc2csc([C@]34CO[C@@H](C)C[C@H]3CSC(N)=N4)n2)no1 [Example 62, trifluoroacetate salt] ?
9690

Would you mind telling me what IC50 value was observed for C[C@H]1C[C@H]2CSC(N)=N[C@@]2(c2nc(NC(=O)c3cnc(C(F)F)cn3)cs2)CO1 ?
145

Would you mind telling me what IC50 value was observed for Cc1cc(C(=O)Nc2csc([C@]34CO[C@@H](C)C[C@H]3CSC(N)=N4)n2)on1 [Example 67, trifluoroacetate salt] ?
5040

Would you mind telling me what IC50 value was observed for C[C@H]1C[C@H]2CSC(N)=N[C@@]2(c2nc(NC(=O)c3ccc(OC(F)F)cc3)cs2)CO1 ?
106

Would you mind telling me what IC50 value was observed for C[C@H]1C[C@H]2CSC(N)=N[C@@]2(c2nc(NC(=O)c3cnn(C)c3)cs2)CO1 [Example 63, trifluoroacetate salt] ?
3940

Would you mind telling me what IC50 value was observed for C[C@H]1C[C@H]2CSC(N)=N[C@@]2(c2nc(NC(=O)c3ccncn3)cs2)CO1 [Example 66, trifluoroacetate salt] ?
575

Would you mind telling me what IC50 value was observed for CCn1cc(C(=O)Nc2csc([C@]34CO[C@@H](C)C[C@H]3CSC(N)=N4)n2)cn1 [Example 72, trifluoroacetate salt] ?
7480

Would you mind telling me what IC50 value was observed for C[C@H]1C[C@H]2CSC(N)=N[C@@]2(c2nc(NC(=O)C3(C)CCC3)cs2)CO1 ?
461

Would you mind telling me what IC50 value was observed for C[C@H]1C[C@H]2CSC(N)=N[C@@]2(c2nc(NC(=O)c3ccc(=O)n(C)c3)cs2)CO1 ?
1410

Would you mind telling me what IC50 value was observed for C[C@H]1C[C@H]2CSC(N)=N[C@@]2(c2nc(NC(=O)c3coc(CF)n3)cs2)CO1 ?
7

Would you mind telling me what IC50 value was observed for Cc1cc(C(=O)Nc2csc([C@]34CO[C@@H](C)C[C@H]3CSC(N)=N4)n2)n(C)n1 [Example 41, trifluoroacetate salt] ?
364

Would you mind telling me what IC50 value was observed for C[C@H]1C[C@H]2CSC(N)=N[C@@]2(c2nc(NC(=O)C3CC(F)(F)C3)cs2)CO1 [Example 78, trifluoroacetate salt] ?
1490

Would you mind telling me what IC50 value was observed for CC#CCOc1ccc(C(=O)Nc2csc([C@]34CO[C@@H](C)C[C@H]3CSC(N)=N4)n2)nc1 ?
18

Would you mind telling me what IC50 value was observed for C[C@H]1C[C@H]2CSC(N)=N[C@@]2(c2nc(NC(=O)c3ccc(C#N)cn3)cs2)CO1 ?
22

Would you mind telling me what IC50 value was observed for Cc1cn(C(F)F)nc1C(=O)Nc1csc([C@]23CO[C@@H](C)C[C@H]2CSC(N)=N3)n1 ?
2

Would you mind telling me what IC50 value was observed for C[C@H]1C[C@H]2CSC(N)=N[C@@]2(c2nc(NC(=O)c3ccon3)cs2)CO1 [Example 77, trifluoroacetate salt] ?
777

Would you mind telling me what IC50 value was observed for C[C@H]1C[C@H]2CSC(N)=N[C@@]2(c2nc(NC(=O)c3ccn(C)n3)cs2)CO1 ?
81

Would you mind telling me what IC50 value was observed for C[C@H]1C[C@H]2CSC(N)=N[C@@]2(c2nc(NC(=O)c3cn(C4CCC4)cn3)cs2)CO1 ?
34100

Would you mind telling me what IC50 value was observed for C[C@H]1C[C@H]2CSC(N)=N[C@@]2(c2nc(NC(=O)C34CC(C3)C4)cs2)CO1 ?
85

Would you mind telling me what IC50 value was observed for C[C@H]1C[C@H]2CSC(N)=N[C@@]2(c2nc(NC(=O)c3ccc(OCF)cn3)cs2)CO1 ?
68

Would you mind telling me what IC50 value was observed for C[C@@H](F)COc1cnc(C(=O)Nc2csc([C@]34CO[C@@H](C)C[C@H]3CSC(N)=N4)n2)cn1 ?
360

Would you mind telling me what IC50 value was observed for C[C@H]1C[C@H]2CSC(N)=N[C@@]2(c2nc(NC(=O)c3cn(C)nn3)cs2)CO1 [Example 76, trifluoroacetate salt] ?
28100

Would you mind telling me what IC50 value was observed for C[C@H]1C[C@H]2CSC(N)=N[C@@]2(c2nc(NC(=O)C3(C#N)CCC3)cs2)CO1 ?
94
